Where these numbers come from: patent US20240245658A1

For each entry below, report its EC50 value.
# assay system: human TAAR1 receptors (Homo sapiens)
# Sequence (Q96RJ0 1-339): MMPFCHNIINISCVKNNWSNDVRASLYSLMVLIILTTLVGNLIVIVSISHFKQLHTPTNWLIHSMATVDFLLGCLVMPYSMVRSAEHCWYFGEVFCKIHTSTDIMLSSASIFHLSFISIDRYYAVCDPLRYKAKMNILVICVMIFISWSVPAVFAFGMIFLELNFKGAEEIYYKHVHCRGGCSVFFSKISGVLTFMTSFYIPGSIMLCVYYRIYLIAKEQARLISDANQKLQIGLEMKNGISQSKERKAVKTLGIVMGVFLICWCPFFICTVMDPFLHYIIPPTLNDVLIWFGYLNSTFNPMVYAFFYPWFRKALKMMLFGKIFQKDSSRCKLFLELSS
# assay comment: TAAR1 Agonism Assay: cAMP HTRF assay for Gs coupled receptor TAAR1 (Euroscreen FAST-0987C)
# experimental conditions: CHO-K1 cells expressing human TAAR1, cAMP HTRF

I need EC50 for every entry listed below, if you could help.
1. Cc1ccc2c(c1)CC(CN)c1ncccc1O2 (single isomer, unassigned) [Compound 129]
2. NCC1Cc2ncccc2Oc2c(F)cccc21 (single isomer, unassigned) [Compound 175]
3. NCC1Oc2ccccc2Oc2cccnc21 (single isomer, unassigned) [Compound 60]
4. NCC1Cc2ccncc2Oc2ccccc21 (single isomer, unassigned) [Compound 21]
5. NCC1Cc2ccc(F)cc2Oc2ccccc21 (single isomer, unassigned) [Compound 89]
6. NCC1Cc2ccccc2Oc2cccnc21 (single isomer, unassigned) [Compound 8]

Result string:
< 1000 nM
1000 to 10000 nM
< 1000 nM
< 1000 nM
< 1000 nM
< 1000 nM

# return EC50 for each item in the list
1. CNCC1Cc2c(F)cccc2Oc2ccccc21 (single isomer, unassigned) [Compound 83]
2. CNCC1Cc2ncc(F)cc2Oc2ccccc21 (single isomer, unassigned)

Result string:
1: > 10000 nM; 2: > 10000 nM
